experiment: kinase inhibitors against Plasmodium liver-stage infection, cell-based, known kinase inhibitor set, luminescence, hepatoma host viability (AID 624392); conditions: Plasmodium liver stage in hepatoma cells, luciferase luminescence, concentration not given here; measured here: host liver cell viability;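 further: infected cells incubated roughly two days before readout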
compounds and their reported liver cell % of control
measured parameter: liver cell % of control (%)

INSERT INTO measurements (compound, unit_abbrev, observed) VALUES
  ('COc1cccc(COc2cc(-n3cnc4ccccc43)sc2C(N)=O)c1', '%', 95),
  ('O=C(O[C@H]1CN[C@H](C#Cc2cc3ncnc(Nc4ccc(Cc5ccccc5)cc4)c3s2)C1)N1CCOCC1', '%', 106),
  ('CS(=O)(=O)CCNCc1ccc(-c2ccc3ncnc(Nc4ccc(OCc5ccccc5)cc4)c3c2)o1', '%', 63.9),
  ('Cn1c(=O)c(Oc2ccc(F)cc2F)cc2cnc(NC3CCOC3)nc21 (stereo unspecified)', '%', 96.2),
  ('CC(=O)NC(Cc1ccc(OP(=O)(O)O)cc1)C(=O)NC1CCC(=O)N2CCCC(C(=O)NCc3ccccc3)N2C1=O (stereo unspecified)', '%', 105),
  ('CC(=Nc1ccc(S(N)(=O)=O)cc1)c1c(O)[nH]c2ccccc12', '%', 121),
  ('COc1ccc(-c2nn3ncccc3c2-c2ccnc(Nc3cccc(C(F)(F)F)c3)n2)cc1', '%', 92.5),
  ('CC(=O)Nc1cccc(C#Cc2cncnc2Nc2ccc(OCc3cccc(F)c3)c(Cl)c2)c1', '%', 111),
  ('O=[N+]([O-])c1ccc2c(c1)C(c1ccccc1Cl)=Nc1cn[nH]c1N2', '%', 101),
  ('Cc1cccc2c(C3=C(c4cn(C)c5ccccc45)C(=O)NC3=O)cn(C)c12', '%', 91.7),
  ('NCc1ccc(-n2c(-c3nonc3N)nc3cnccc32)cc1', '%', 104),
  ('O=C1NC(=NCCc2cccc(Cl)c2)SC1=Cc1ccc2ncccc2c1', '%', 131),
  ('CN(C)C(=O)O[C@H]1CN[C@H](C#Cc2cc3ncnc(Nc4ccc(OCc5cccc(F)c5)c(Cl)c4)c3s2)C1', '%', 97.6),
  ('O=C1NC(=O)C(c2ccccc2)=C1Nc1ccccc1', '%', 106),
  ('CCn1c(-c2nonc2N)nc2c(C#CC(C)(C)O)nc(OC[C@H](N)c3ccccc3)cc21', '%', 91.7),
  ('Cc1ccc(NC(=O)c2ccnc(N3CCCC3)c2)cc1-c1ccc(C(=O)NCC2CC2)cc1', '%', 90.4),
  ('COc1cc[nH]c1C=C1C(=O)Nc2ccc(F)c(I)c21', '%', 98.3),
  ('O=C1NC(=NCc2c(Cl)cccc2Cl)SC1=Cc1ccc2ncccc2c1', '%', 106),
  ('COc1ccc(CNC(=O)c2ccc(-c3cc(-c4nnc(C)o4)ccc3C)cc2)cc1', '%', 172),
  ('COc1cccc(C(=O)c2sc(Nc3ccc(N4CCN(C(C)C)CC4)cc3)nc2N)c1', '%', 86.7),
  ('Cn1cc(C2=C(c3cn(C)c4c([N+](=O)[O-])cccc34)C(=O)NC2=O)c2ccccc21', '%', 78.7),
  ('N#CCn1c(=O)c(Oc2ccc(F)cc2F)cc2cnc(NC3CCOCC3)nc21', '%', 96.2),
  ('Cn1cc(C2=C(c3cn(C)c4cc(C(=O)O)ccc34)C(=O)NC2=O)c2ccccc21', '%', 145),
  ('c1ccc(Oc2ccc(Nc3ncc(-c4ccccc4)o3)cc2)cc1', '%', 103),
  ('Cc1ccc(C(=O)NC2CCCCC2)cc1-c1ccc(C(=O)NCC2CC2)cc1', '%', 103),
  ('COc1cc[nH]c1C=C1C(=O)Nc2ccccc21', '%', 116),
  ('FC(F)(F)c1cccc(Nc2nccc(-c3cnn4nc(-c5ccccc5)ccc34)n2)c1', '%', 97.2),
  ('Cn1cc(C2=C(Sc3ccccc3)C(=O)NC2=O)c2ccccc21', '%', 92.3),
  ('COc1cc[nH]c1C=C1C(=O)Nc2ccc([N+](=O)[O-])c(N3CCC(O)C3)c21 (stereo unspecified)', '%', 102),
  ('CON=C1NC(=O)C(=Cc2ccc3ncccc3c2)S1', '%', 89.4),
  ('Clc1ccc(CNc2nccc(-c3cnn4ncccc34)n2)cc1', '%', 78.2),
  ('Cn1c(=O)c(Oc2ccc(F)cc2F)cc2cnc(NC3CCC(O)CC3)nc21 (stereo unspecified)', '%', 112),
  ('O=C1Nc2ccc(-c3cccnc3)cc2/C1=C\c1cc(Br)c(O)c(Br)c1', '%', 174),
  ('CCN1CCC(C(=O)NC2NNC3NNC(c4cccc(F)c4F)CC32)CC1 (stereo unspecified)', '%', 73.6),
  ('COC(=O)Nc1nc2ccc(Oc3cccc(NC(=O)Nc4cc(C(F)(F)F)ccc4F)c3)cc2[nH]1', '%', 103),
  ('COc1ccc(C2=C(c3cn(C)c4ccccc34)C(=O)NC2=O)cc1OC', '%', 215),
  ('O=c1[nH]c2nc(NC3CCOCC3)ncc2cc1Oc1ccc(F)cc1F', '%', 94.5),
  ('Cn1cc(C2=C(c3cc[nH]c3)C(=O)NC2=O)c2ccccc21', '%', 109),
  ('NS(=O)(=O)c1ccc(NC2CC(c3ccc(O)c(F)c3)NN2)cc1 (stereo unspecified)', '%', 113),
  ('COc1ccccc1-c1cc(/C=C2\C(=O)Nc3ncc(Br)cc32)cc(Br)c1O', '%', 102),
  ('CS(=O)(=O)CCCn1c(=O)c(Oc2ccc(F)cc2F)cc2cnc(NC3CCOCC3)nc21', '%', 98.7);
